These data points were gathered from patent US9920073B2.

Test system: amphotropic murine leukemia virus (AMLV)
Test: microbe, parasite or virus in culture
Type: cell-based
Conditions: Murine leukemia virus, read-out: IC50 AMLV, Table 2 screening results; specificity control
Kindly supply the reported IC50 values for the records listed here.

Write down IC50 measured for item O=C(Cc1cccc2ccccc12)N1CCN(C(=O)c2ccco2)CC1 > 50 µM

Report IC50, nothing else, for this compound: COc1ccc(Cl)cc1C(=O)Cn1c(=O)oc2cc(S(=O)(=O)N3CCOCC3)ccc21 > 50 µM

Provide only the value of recorded IC50 for O=C(c1ccccc1)N1CCN(C(=O)c2ccc(N3CCOCC3)c([N+](=O)[O-])c2)CC1 > 50 µM

Provide measured IC50 value, entry: CCc1ccc(C(=O)N2CCN(C(=O)c3cc4cc(C)ccc4nc3C)CC2)cc1 > 300 µM

Give reported IC50 value for CC(C(=O)N1CCCc2ccccc21)N1CCN(C(=O)c2ccccc2)CC1 (centres unmarked) > 50 µM

Provide only the value of recorded IC50 for O=C(C1=Cc2cc(Br)ccc2OC1)N1CCN(C(=O)c2ccccc2)CC1 > 300 µM

Query IC50 for O=C(c1ccccc1)N1CCN(C(=O)c2cc(-c3ccncc3)nc3ccccc23)CC1 > 50 µM

Identify the reported IC50 for the following entry. O=C(c1ccco1)N1CCN(C(O)COc2ccc(Cl)cc2[N+](=O)[O-])CC1 (centres unmarked) > 50 µM

###

Tested on: amphotropic murine leukemia virus (AMLV)
Assay: microbe, parasite or virus in culture
Format: cell-based
Conditions: Murine leukemia virus, read-out: IC50 AMLV, Table 2 screening results; specificity control
experimental.endpoint: IC50

Indicate the recorded IC50 value for this molecule: O=C(COc1cccc(Br)c1)N1CCN(C(=O)c2ccccc2)CC1 > 300 µM

# return recorded IC50 for input Cc1[nH]c2ccccc2c1C(=O)C(=O)N1CCC(C(=O)c2ccc(O)cc2)CC1 > 50 µM

Report measured IC50; entry is O=C(c1cnccn1)N1CCN(C(=O)c2cc3ccccc3cc2O)CC1 > 300 µM

Please supply the value of reported IC50 for the item Cc1cnc2c(S(=O)(=O)N3CCN(C(=O)c4ccc(C)s4)CC3)cccc2c1 > 50 µM

Return IC50 for the following molecule: CCc1cc(C(=O)N2CCN(C(=O)c3ccccc3)CC2)sc1C > 300 µM

Give the value of IC50 reported for the following: O=C(CCC(=O)N1CCN(C(=O)c2ccccc2)CC1)c1ccc(Cl)s1 > 300 µM

Answer with reported IC50 of Cc1ccc2nc(C)c(C(=O)N3CCN(C(=O)c4ccccc4)CC3)cc2c1 > 300 µM

Note IC50 for the molecule shown: COc1ccc(Br)cc1C=CC(=O)N1CCC(C(=O)c2ccccc2)CC1 210 µM

Name the recorded IC50 of the item CC(C)n1ncc2c(C(=O)N3CCN(C(=O)c4ccccc4)CC3)cc(-c3ccco3)nc21 in your answer. > 50 µM

###

System: HIV-1JR-CSF
Experiment: microbe, parasite or virus in culture
Format: cell-based
Conditions: Human immunodeficiency virus 1
experimental.endpoint: pIC50
Notebook: values listed as pIC50 are -log10 of the concentration (mol/L).

Please indicate pIC50 recorded for COc1cnc(-n2cnc(C)n2)c2[nH]cc(C(=O)C(=O)N3CC4C=NN(c5ccccc5)C4C3)c12 (stereo not shown) 7.89

###

System: amphotropic murine leukemia virus (AMLV)
Test: microbe, parasite or virus in culture
Assay type: cell-based
Settings: Murine leukemia virus, read-out: IC50 AMLV, Table 2 screening results; specificity control
pIC50: −log10 of the molar value.
experimental.endpoint: pIC50

Give pIC50 for O=C(c1ccccc1)N1CCN(C(=O)c2ccc3noc(-c4ccccc4)c3c2)CC1 < 4.30

Identify pIC50 associated with the molecule Cc1nc2ccc(Cl)cc2cc1C(=O)N1CCN(S(=O)(=O)c2ccccc2)CC1 3.62

Note pIC50 for the molecule shown: Cc1c(C)c(C)c(S(=O)(=O)N2CCN(C(=O)c3cccnc3O)CC2)c(C)c1C < 3.52

In one line, give reported pIC50 of the entry Cc1nn(C)c2nc(-c3cccs3)cc(C(=O)N3CCN(C(=O)c4ccccc4)CC3)c12 . < 4.30

Respond only with pIC50 recorded for O=C(COc1ncnc2sc(-c3ccccc3)cc12)N1CCN(C(=O)c2ccco2)CC1 < 4.30

Provide measured pIC50 value, entry: O=C(COc1cccc2ccccc12)N1CCN(C(=O)c2ccccc2F)CC1 < 4.30

Provide only the value of recorded pIC50 for O=C(c1ccccc1)N1CCN(C(=O)c2ccc3c(c2)CCC3)CC1 < 3.52

In one line, give reported pIC50 of the entry O=C(COc1cccc2ccccc12)N1CCN(C(=O)c2ccccc2)CC1 . < 3.52

Hello, please tell me recorded pIC50 for this one: O=C(c1ccccn1)N1CCN(S(=O)(=O)c2ccc3c(c2)OCCO3)CC1 < 3.52

// fetch pIC50 given entry O=C(CSc1ncnc2sccc12)N1CCN(C(=O)c2cccs2)CC1 < 4.30

Identify measured pIC50 associated with CCOC(=O)N1CCN(C(=O)C(=O)c2c(C)[nH]c3ccccc23)CC1 < 4.30

Report pIC50, nothing else, for this molecule: Cc1cccc(C(=O)N2CCN(S(=O)(=O)c3ccc(C)c(C)c3)CC2)c1 < 3.52

Hello, please tell me recorded pIC50 for this one: COc1ccc(C(=O)N2CCN(C(=O)COc3cccc4ccccc34)CC2)cc1 < 4.30

Specify measured pIC50 for O=C(c1cc(-c2ccc(Cl)cc2)on1)N1CCN(S(=O)(=O)c2ccccc2F)CC1 . < 3.52

Identify measured pIC50 corresponding to Cc1cc(C)nc(SCC(=O)N2CCN(C(=O)c3ccccc3)CC2)n1 < 4.30

Identify measured pIC50 corresponding to COc1cccc(C(=O)N2CCN(C(=O)COc3cccc4ccccc34)CC2)c1 < 4.30

# return recorded pIC50 for entry O=C(CSc1nnnn1C1CCCC1)N1CCN(C(=O)c2cccs2)CC1 < 4.30

Give the value of pIC50 reported for the following: O=C(CSC1=Nc2ccccc2CS1)N1CCN(C(=O)c2cccs2)CC1 < 4.30

Tell me measured pIC50 for O=C(c1ccccc1)N1CCN(S(=O)(=O)c2ccc3c(c2)CCCC3)CC1 please. 3.71

Respond only with pIC50 recorded for O=C(c1ccccc1)N1CCN(C(=O)c2ccc3c4c(cccc24)CC3)CC1 < 3.52
